ASSAYED_TARGET: UniProt:P78362
Sequence (P78362 whole entry, looked up): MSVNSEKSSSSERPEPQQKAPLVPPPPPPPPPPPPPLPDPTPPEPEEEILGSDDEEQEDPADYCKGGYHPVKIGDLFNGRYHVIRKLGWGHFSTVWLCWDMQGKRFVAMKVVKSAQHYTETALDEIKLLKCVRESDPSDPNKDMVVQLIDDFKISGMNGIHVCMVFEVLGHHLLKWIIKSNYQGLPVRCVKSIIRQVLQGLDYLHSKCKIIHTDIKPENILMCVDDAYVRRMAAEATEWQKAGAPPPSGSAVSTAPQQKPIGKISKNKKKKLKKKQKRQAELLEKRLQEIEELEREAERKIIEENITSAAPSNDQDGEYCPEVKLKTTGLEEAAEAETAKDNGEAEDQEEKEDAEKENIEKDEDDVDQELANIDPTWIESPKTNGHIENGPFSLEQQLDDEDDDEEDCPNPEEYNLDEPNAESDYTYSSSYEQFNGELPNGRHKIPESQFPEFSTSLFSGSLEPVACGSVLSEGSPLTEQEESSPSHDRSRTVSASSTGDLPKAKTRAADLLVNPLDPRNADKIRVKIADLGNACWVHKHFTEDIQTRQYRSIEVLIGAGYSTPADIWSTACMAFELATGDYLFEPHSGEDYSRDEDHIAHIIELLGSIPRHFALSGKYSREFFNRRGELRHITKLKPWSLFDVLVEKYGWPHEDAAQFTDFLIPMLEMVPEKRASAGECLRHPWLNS
EXPERIMENTAL_PROTOCOL: radiometric filter-binding kinase assay, Kinase HotSpot
TEST_CONTEXT: compound 0.5 µM; ATP 10 µM
READOUT_TYPE: residual activity (%)
Reply with just the number (in %).

Reference set, count: 5
- GIVEN_SMILES: "N#Cc1c(NC(=O)c2cccc3ccccc23)sc2c1CCCC2"
  ASSAYED_TARGET: "UniProt:P78362"
  ENDPOINT_RESULT: 99.2
- GIVEN_SMILES: "CCOc1cc2ncnc(Nc3cccc(Br)c3)c2cc1OCC"
  ASSAYED_TARGET: "UniProt:P78362"
  ENDPOINT_RESULT: 95.6
- GIVEN_SMILES: "COc1cc2c(cc1OC)-c1[nH]nc(Nc3cccc(F)c3)c1C2"
  ASSAYED_TARGET: "UniProt:P78362"
  ENDPOINT_RESULT: 87.8
- GIVEN_SMILES: "N#C/C(=C1/Nc2ccccc2S1)c1ccnc(NCCc2cccnc2)n1"
  ASSAYED_TARGET: "UniProt:P78362"
  ENDPOINT_RESULT: 97.1
- GIVEN_SMILES: "O=S(=O)(NCCNC/C=C/c1ccc(Br)cc1)c1cccc2cnccc12"
  ASSAYED_TARGET: "UniProt:P78362"
  ENDPOINT_RESULT: 88.3

Lookup: // query residual activity value for entry FC(F)(F)c1ccc(/C=C/c2nc(COc3ccc(CCCCn4ccnn4)cc3)co2)cc1
Found: 101

Lookup: Could you do the same for COc1cc2c(Nc3ccc(Br)cc3F)ncnc2cc1OCC1CCN(C)CC1 , please?
Found: 106

Lookup: Could you do the same for CCc1nc(-c2ccc(OC)cc2)[nH]c1-c1ccncc1 , please?
Found: 101

Lookup: Could you do the same for O=C1NC(=O)c2cc(Nc3ccc(F)cc3)c(Nc3ccc(F)cc3)cc21 , please?
Found: 92.3

Lookup: Could you do the same for CCCCc1c(-c2ccc(O)cc2)[nH]c2nccnc12 , please?
Found: 110

Lookup: Could you do the same for c1ccc(-c2cnc(Nc3ccc(OCCN4CCCC4)cc3)s2)cc1 , please?
Found: 103

Lookup: Could you do the same for O=C1NC(=O)c2c1c1c3ccccc3[nH]c1c1[nH]c3cc(Br)ccc3c21 , please?
Found: 96.2

Lookup: Could you do the same for O=C(c1ccccc1)c1ccc(N2CCOCC2)cc1O , please?
Found: 102

// provenance: the kinase profiling compilation of Christmann-Franck et al. (2016)
